Entry source: patent US8957074B2

System: phosphorylation of pRb at the Ser780 site in JeKo-1 mantle cell lymphoma cells
protocol_description: CDK4 cellular assay: ELISA of pRb phosphorylation at Ser780 in JeKo-1 cells
Format: cell-based
condition_description: Homo sapiens; JeKo-1 cells, p-pRb % inhibition adjusted with total pRb levels; read-out: Normalized cellular ppRb inhibition IC50
quantity_measured: IC50

* CCOC(=O)N1C2CCC1CN(C(=O)c1ccc(Nc3ncc4cc(C(=O)N(C)C)n(C5CCCC5)c4n3)nc1)C2 | 771 to 2200 nM
* CN(C)C(=O)c1cc2cnc(Nc3ccc(C(=O)N4CC5CCC(C4)N5)cn3)nc2n1C1CCCOC1 (centres unmarked) | 132 to 458 nM
* CN(C)C(=O)c1cc2cnc(Nc3ccc(C(=O)N4CC5CC4CN5)cn3)nc2n1C1CCCCCC1 (centres unmarked) | 29 to 33 nM
* CN(C)C(=O)c1cc2cnc(Nc3ccc(N4CC5(CC6CCC(C5)N6)OC4=O)cn3)nc2n1C1CCCC1 (centres unmarked) | 110 nM
* CN(C)C(=O)c1cc2cnc(Nc3ccc(N4C[C@@]5(CCCNC5)OC4=O)cn3)nc2n1C1CCCC1 | 75 nM
* CN(C)C(=O)c1cc2cnc(Nc3ccc(C(=O)N4CC5CCC(C4)C5O)cn3)nc2n1C1CCCC1 (centres unmarked) | 430 to 1300 nM
* CN(C)C(=O)c1cc2cnc(Nc3ccc(N4CC5CCC(CC4=O)N5)cn3)nc2n1-c1ccc(C(C)(C)C#N)cc1 (centres unmarked) | 247 to 1520 nM
* CN(C)C(=O)c1cc2cnc(Nc3ccc(C(=O)N4CC5CCC(C4)N5C(=O)CN)cn3)nc2n1C1CCCC1 | 47 nM
* CN(C)C(=O)c1cc2cnc(Nc3ccc(C(=O)N4[C@@H]5CNC[C@H]4COC5)cn3)nc2n1C1CCCC1 | 51 to 222 nM
* CN(C)C(=O)c1cc2cnc(Nc3ccc(N4CCC5(CCCN5)C4=O)cn3)nc2n1C1CCCOC1 (centres unmarked) | 199 to 791 nM
* CC(=O)N1C2CCC1CN(C(=O)c1ccc(Nc3ncc4cc(C(=O)N(C)C)n(C5CCCCCC5)c4n3)nc1)C2 | 259 nM
* CN(C)C(=O)c1cc2cnc(Nc3ccc(N4C[C@H]5CC[C@@H](CC4=O)N5CC(F)(F)F)cn3)nc2n1C1CCCC1 | 49 nM
* CN(C)C(=O)c1cc2cnc(Nc3ccc(N4CC5COCC(CC4=O)N5)cn3)nc2n1C1CCCC1 (centres unmarked) | 162 nM
* CN(C)C(=O)c1cc2cnc(Nc3ccc(N4C[C@@]5(CCCNCC5)OC4=O)cn3)nc2n1C1CCCC1 | 100 nM
* CN(C)C(=O)c1cc2cnc(Nc3ccc(C(=O)N4CC5CC4CN5)cn3)nc2n1C1CCCCC1 (centres unmarked) | 54 nM
* CN(C)C(=O)c1cc2cnc(Nc3ccc(N4C[C@@H]5CC[C@H](CC4=O)N5S(C)(=O)=O)cn3)nc2n1C1CCCC1 | 150 nM
* CC(C)N1C2CCC1CN(C(=O)c1ccc(Nc3ncc4cc(C(=O)N(C)C)n(C5CCCC5)c4n3)nc1)C2 | 20 to 48 nM
* CN(C)C(=O)c1cc2cnc(Nc3ccc(N4C[C@]5(CCCNC5)OC4=O)cn3)nc2n1C1CCCC1 | 62 nM
* CC(C)N1[C@@H]2CC[C@H]1CN(c1ccc(Nc3ncc4cc(C(=O)N(C)C)n(C5CCCC5)c4n3)nc1)C(=O)C2 | 13 nM
* CN(C)C(=O)c1cc2cnc(Nc3ccc(C(=O)N4CC5CCC4C5O)cn3)nc2n1C1CCCC1 (centres unmarked) | 388 nM
* CC(C)[C@@H](N)C(=O)N1C2CCC1CN(C(=O)c1ccc(Nc3ncc4cc(C(=O)N(C)C)n(C5CCCC5)c4n3)nc1)C2 | 723 nM
* CN(C)C(=O)c1cc2cnc(Nc3ccc(C(=O)N4CC5CNCC(C4)O5)cn3)nc2n1C1CCCC1 | 352 nM
* CN(C)C(=O)c1cc2cnc(Nc3ccc(C(=O)N4C[C@@H]5C[C@H]4C[C@@H]5O)cn3)nc2n1C1CCCC1 | 344 to 582 nM
* CN(C)C(=O)c1cc2cnc(Nc3ccc(N4CC5CC4CN5)cn3)nc2n1C1CCCC1 (centres unmarked) | 452 nM
* CN(C)C(=O)c1cc2cnc(Nc3ccc(C(=O)N4CC5(CNC5)C4)cn3)nc2n1C1CCCC1 | 132 to 415 nM
* CN(C)C(=O)c1cc2cnc(Nc3ccc(C(=O)N4CC5CCC(C4)C5N(C)C)cn3)nc2n1C1CCCC1 (centres unmarked) | 140 nM
* CN(C)C(=O)c1cc2cnc(Nc3ccc(C(=O)N4CC5COCC(C4)N5)cn3)nc2n1C1CCCC1 | 180 nM
* CN(C)C(=O)c1cc2cnc(Nc3ccc(C(=O)N4CC[C@@H]5CC[C@H](C4)N5)cn3)nc2n1C1CCCC1 | 112 nM
* CN(C)C(=O)c1cc2cnc(Nc3ccc(C(=O)N4CCC5CCC(C4)N5)cn3)nc2n1C1CCCC1 (racemic) | 48 nM
